ASSAY METHOD TEXT: self-splicing fitness, log relative to wild type (ln ratio); higher = more splicing; Tetrahymena group I intron in knt gene, E. coli kanamycin selection, DiMSum; sequences stand for … in CUCUCU…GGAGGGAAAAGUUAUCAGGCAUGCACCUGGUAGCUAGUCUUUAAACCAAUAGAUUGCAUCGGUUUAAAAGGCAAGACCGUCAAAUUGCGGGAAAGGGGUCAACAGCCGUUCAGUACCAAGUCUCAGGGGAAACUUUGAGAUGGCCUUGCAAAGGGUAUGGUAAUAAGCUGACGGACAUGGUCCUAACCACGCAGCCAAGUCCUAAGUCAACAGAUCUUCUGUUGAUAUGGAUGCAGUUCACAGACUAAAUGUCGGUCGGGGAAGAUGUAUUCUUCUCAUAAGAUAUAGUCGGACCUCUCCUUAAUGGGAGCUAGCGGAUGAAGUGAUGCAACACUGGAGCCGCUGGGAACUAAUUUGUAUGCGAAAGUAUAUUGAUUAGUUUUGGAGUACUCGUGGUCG;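 also: selection with 25 µg/mL kanamycin versus none on LB agar overnight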
CONDITIONS: 37 °C
Each entry falls in a class defined on self-splicing fitness (ln); the bands are low group: < -2; middle group: ≥ -2 and < -1; high group: ≥ -1

Illustrative cases are given below, each with its answer.
GGAUAGCAAUAUUACGAGUU :: middle group
CAGCAGCAAUAUUACGCAGU :: low group
GGUUAGCAAUAUUACGGGUA :: middle group
UCCGAGCAAUAUUACGCCUG :: middle group
CUCGAGCAAUAUUACGGAGA :: middle group

# input The entry to classify is GCCAAGCAAUAUUACGACUG ; which class holds it?
# output middle group

# input What about UCCCAGCAAUAUUACGUAGA ?
# output high group

# input What about GAAUAGCAAUAUUACGAACG ?
# output high group

# input What about AUCAAGCAAUAUUACGCUCA ?
# output high group

# input What about AGACAGCAAUAUUACGAUAA ?
# output high group

# input What about AAGGAGCAAUAUUACGGGAU ?
# output low group

# input What about UACAAGCAAUAUUACGCGUG ?
# output middle group

# input What about CCCAAGCAAUAUUACGUUAU ?
# output low group

# input What about AGUCAGCAAUAUUACGACAC ?
# output high group

# input What about AUUAAGCAAUAUUACGUAUC ?
# output low group

# input What about GGGGAGCAAUAUUACGCGGA ?
# output low group

# input What about CACAAGCAAUAUUACGUACG ?
# output high group

# input What about CAUCAGCAAUAUUACGUCCG ?
# output high group

# input What about AGACAGCAAUAUUACGAUCA ?
# output high group

# input What about AGUGAGCAAUAUUACGGUUG ?
# output middle group

# input What about UAAAAGCAAUAUUACGUGCC ?
# output middle group

###

ASSAY METHOD TEXT: self-splicing fitness, log relative to wild type (ln ratio); higher = more splicing; Tetrahymena group I intron in knt gene, E. coli kanamycin selection, DiMSum; sequences stand for … in CUCUCU…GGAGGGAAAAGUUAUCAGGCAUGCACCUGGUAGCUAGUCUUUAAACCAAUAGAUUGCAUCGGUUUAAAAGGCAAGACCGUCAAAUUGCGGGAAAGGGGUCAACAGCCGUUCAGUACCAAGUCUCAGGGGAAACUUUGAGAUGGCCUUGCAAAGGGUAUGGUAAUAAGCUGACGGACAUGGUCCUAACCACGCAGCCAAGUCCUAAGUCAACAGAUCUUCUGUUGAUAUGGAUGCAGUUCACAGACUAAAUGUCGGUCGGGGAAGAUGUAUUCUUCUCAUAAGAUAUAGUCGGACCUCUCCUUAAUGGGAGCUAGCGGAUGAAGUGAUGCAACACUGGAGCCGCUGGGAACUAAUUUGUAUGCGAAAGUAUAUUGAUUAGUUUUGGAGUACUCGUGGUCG
CONDITIONS: 37 °C
Below: a set of entries, each annotated with reported self-splicing fitness (ln).
Quick one: just the number, no unit, thanks!

GGUGAGCAAUAUUACGACGU :: -0.013
CUGAAGCAAUAUUACGUGGU :: -1.41

# input Return reported self-splicing fitness (ln); argument: CGACAGCAAUAUUACGUUUC
# output -2.23

# input What about GCGCAGCAAUAUUACGAAGU ?
# output -0.493

# input What about GCUCAGCAAUAUUACGUGUA ?
# output -0.00875

# input What about UACAAGCAAUAUUACGUAUA ?
# output -0.891

# input What about AAUUAGCAAUAUUACGAUUU ?
# output -0.268

# input What about CAAGAGCAAUAUUACGAACU ?
# output -2.11

# input What about GGGGAGCAAUAUUACGCAGG ?
# output -2.08

# input What about UAGAAGCAAUAUUACGAGCC ?
# output -2.23

###

Below: a set of entries, each annotated with reported self-splicing fitness (ln).
ASSAY METHOD TEXT: self-splicing fitness, log relative to wild type (ln ratio); higher = more splicing; Tetrahymena group I intron in knt gene, E. coli kanamycin selection, DiMSum; sequences stand for … in CUCUCU…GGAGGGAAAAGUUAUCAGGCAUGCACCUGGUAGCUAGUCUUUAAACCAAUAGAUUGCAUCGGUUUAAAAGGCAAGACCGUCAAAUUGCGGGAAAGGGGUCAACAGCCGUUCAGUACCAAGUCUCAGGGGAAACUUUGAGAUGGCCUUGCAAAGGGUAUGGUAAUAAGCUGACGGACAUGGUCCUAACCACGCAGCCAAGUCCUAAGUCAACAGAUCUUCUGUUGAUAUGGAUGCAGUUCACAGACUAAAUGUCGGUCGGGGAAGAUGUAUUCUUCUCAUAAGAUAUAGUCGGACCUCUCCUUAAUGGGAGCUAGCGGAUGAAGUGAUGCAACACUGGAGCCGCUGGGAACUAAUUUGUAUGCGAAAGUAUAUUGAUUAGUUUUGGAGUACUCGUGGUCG
CONDITIONS: 30 °C
Quick one: just the number, no unit, thanks!

UCCCAGCAAUAUUACGUCCC :: -3.08
AUAAAGCAAUAUUACGGAAG :: -2.3
CCCCAGCAAUAUUACGCCUC :: -3.25
AACUAGCAAUAUUACGAGCA :: -1.68
GUACAGCAAUAUUACGUCAG :: -4.26

# input Return reported self-splicing fitness (ln); argument: AACGAGCAAUAUUACGGACA
# output -2.38

# input What about UUUAAGCAAUAUUACGCCGU ?
# output -1.49

###

ASSAY METHOD TEXT: self-splicing fitness, log relative to wild type (ln ratio); higher = more splicing; Tetrahymena group I intron in knt gene, E. coli kanamycin selection, DiMSum; sequences stand for … in CUCUCU…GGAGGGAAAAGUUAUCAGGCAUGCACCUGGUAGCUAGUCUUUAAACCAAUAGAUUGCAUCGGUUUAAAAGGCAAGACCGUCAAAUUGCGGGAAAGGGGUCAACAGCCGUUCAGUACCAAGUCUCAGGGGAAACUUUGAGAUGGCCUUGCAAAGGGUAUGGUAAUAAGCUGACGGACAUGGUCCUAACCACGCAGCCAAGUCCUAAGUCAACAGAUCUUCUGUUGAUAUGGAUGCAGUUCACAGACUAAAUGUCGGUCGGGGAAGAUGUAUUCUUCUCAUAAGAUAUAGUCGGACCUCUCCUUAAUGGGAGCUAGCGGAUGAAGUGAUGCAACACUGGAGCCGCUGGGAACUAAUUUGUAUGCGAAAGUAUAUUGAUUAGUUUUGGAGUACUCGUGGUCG
CONDITIONS: 37 °C
MEASURE NAME: self-splicing fitness (ln)
Quick one: just the number, no unit, thanks!

Example results:
ACUGAGCAAUAUUACGGGCG :: -1.01
AGUCAGCAAUAUUACGACAA :: 0.177
GUCUAGCAAUAUUACGCGGU :: -1.04
CUUUAGCAAUAUUACGGGCA :: -2.67
AUCCAGCAAUAUUACGGACG :: -0.0752

# input Return reported self-splicing fitness (ln); argument: CAAGAGCAAUAUUACGUCUC
# output -2.73

# input What about AGAGAGCAAUAUUACGGACU ?
# output -0.495

# input What about GUCCAGCAAUAUUACGCGAC ?
# output -2.86

# input What about UUAUAGCAAUAUUACGCUGG ?
# output -0.828

###

ASSAY METHOD TEXT: self-splicing fitness, log relative to wild type (ln ratio); higher = more splicing; Tetrahymena group I intron in knt gene, E. coli kanamycin selection, DiMSum; sequences stand for … in CUCUCU…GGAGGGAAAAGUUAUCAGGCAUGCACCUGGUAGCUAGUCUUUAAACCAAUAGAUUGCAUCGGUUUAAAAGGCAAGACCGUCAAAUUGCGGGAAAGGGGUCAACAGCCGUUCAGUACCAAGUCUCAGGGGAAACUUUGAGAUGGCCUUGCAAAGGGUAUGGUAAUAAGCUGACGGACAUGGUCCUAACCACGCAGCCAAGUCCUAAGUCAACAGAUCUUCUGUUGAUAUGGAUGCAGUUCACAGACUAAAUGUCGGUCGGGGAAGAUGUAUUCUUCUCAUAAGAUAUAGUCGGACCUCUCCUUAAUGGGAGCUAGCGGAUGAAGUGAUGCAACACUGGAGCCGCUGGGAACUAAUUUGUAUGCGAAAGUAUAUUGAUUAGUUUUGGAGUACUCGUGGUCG
CONDITIONS: 37 °C
Each entry falls in a class defined on self-splicing fitness (ln); the bands are LOW = under -2, MID = from -2 up to -1, HIGH = -1 and over

# input The entry to classify is UAGCAGCAAUAUUACGGGCC ; which class holds it?
# output LOW
